# assayed-target: Short transient receptor potential channel 6 (Mus musculus)
# protocol-description: positive modulators of mouse TRPC6 channel – HEK293 cells, membrane potential dye, duplicate, selectivity assay for TRPC4 potentiator project, confirmation (AID 434952)
# settings: HEK293 TRPC6, membrane potential dye fluorescence, at 10 µM, maximal acetylcholine added after compound; hits give high values
Active and inactive are the calls of the source.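 How the source made its calls: active means compound raising the membrane signal above positive-control mean plus 3 SD in both repeats, and a primary screen hit; inactive means the rest.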
property-measured: potentiation, percent of control

A selection of reference data follows.
[
  {
    "compound": "COC(=O)[C@@]12CCCCN1[C@H](c1ccc(-c3ccccc3)cc1)[C@@H]1C(=O)N(C)C(=O)[C@@H]12",
    "potentiation, percent of control": "inactive"
  },
  {
    "compound": "CC(=O)c1nn(-c2cccc(Br)c2)cc1C(=O)c1cccc2ccccc12",
    "potentiation, percent of control": "inactive"
  },
  {
    "compound": "CC(C)(C)n1cnc2cc(NCc3ccc(Br)cc3)ccc21",
    "potentiation, percent of control": "inactive"
  },
  {
    "compound": "CCN1CCN(c2c(Cl)cccc2NC(=O)c2ccc([N+](=O)[O-])cc2)CC1",
    "potentiation, percent of control": "inactive"
  },
  {
    "compound": "CCOC(=O)CSc1nc2c(sc(=S)n2Cc2ccco2)c(=O)n1-c1ccccc1",
    "potentiation, percent of control": "inactive"
  }
]

For the compound O=C1CN=C(Nc2cccc(C(F)(F)F)c2)N1C1CCCC1 , what potentiation, percent of control is on record?
inactive

For the compound CCOc1ccccc1C(=O)NCCc1cnc[nH]1 , what potentiation, percent of control is on record?
inactive

For the compound NC(N)=NN=C1CCC(c2ccccc2)CC1 (stereo unspecified) , what potentiation, percent of control is on record?
inactive

For the compound CCC(=O)c1ccc(N2CCN(C(=O)c3ccccc3Br)CC2)c(F)c1 , what potentiation, percent of control is on record?
inactive

For the compound CC(C)c1c(O)nc(SCCN(C)C)[nH]c1=O , what potentiation, percent of control is on record?
inactive

###

# protocol-description: serotonin-gated TRPC4 signal block – cell-based, second counter screen, HEK293 TRPC4/5HT1a, Fluo-4, counter-screen for TRPC4 inhibitor project, confirmation (AID 434978);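 further: serotonin given first at submaximal then at maximal dose after compound preincubation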
# settings: Fluo-4 calcium flux, at 10 µM, serotonin added to trigger calcium flux
The source made the active and inactive calls.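 The calls were made as follows: active = primary screen active whose calcium signal fell more than 3 SD beyond the full-serotonin control mean in both duplicate plates; inactive = the rest.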
Give your call using only these classes: YES = active, NO = inactive

Entry CCN(CC)c1ncnc2sc3c(c12)CCC3 : call = ?
NO

###

# System: TRPC4 beta (transient receptor potential cation channel C4), mouse
# protocol-description: TRPC4 cation channel opening, retest – cell-based, Fluo4 calcium, HEK293 TRPC4beta/mu-opioid, duplicates, 10 µM, confirmation (AID 2426)
# settings: Fluo4 calcium fluorescence, at 10 µM
The source made the active and inactive calls.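 Rule for the calls: active = fluorescence ratio normalized to control raised more than 50% in primary screen plus both repeat runs; inactive = the rest.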
Give your call using only these classes: active, inactive

Previously resolved entries follow.
[
  {
    "molecule": "COc1ccccc1CCc1nnc(CCC(=O)NCCCOc2cccnc2)o1",
    "group": "inactive"
  },
  {
    "molecule": "CN(C)c1ccc([N+](=O)[O-])cc1C(=O)NCC(c1ccco1)N(C)C (stereo not drawn)",
    "group": "inactive"
  },
  {
    "molecule": "CCCCCCc1cc2cc(-c3nnc(-c4cc(OC)c(OC)c(OC)c4)o3)c(=O)oc2cc1O",
    "group": "inactive"
  },
  {
    "molecule": "COC(=O)C(CC(=O)Nc1cc(C)ccc1C)Nc1ccccc1OC (stereo not drawn)",
    "group": "inactive"
  },
  {
    "molecule": "CCn1c(N2CCN(C(=S)NCCc3ccccc3)CC2)nc2ccccc21",
    "group": "inactive"
  },
  {
    "molecule": "COCCCn1c(N)c(-c2nc3ccccc3n2C)c2nc3ccccc3nc21",
    "group": "inactive"
  },
  {
    "molecule": "CCOC(=O)C1=C(C)N(C)C(=S)NC1c1cccc(Cl)c1Cl (stereo not drawn)",
    "group": "inactive"
  },
  {
    "molecule": "CC(C)C(=O)Nc1ccc(C(=O)Nc2nnc(C(C)(C)C)s2)cc1",
    "group": "inactive"
  },
  {
    "molecule": "Cc1ccc(C)c(S(=O)(=O)/N=C2\\C=C(NS(=O)(=O)c3ccccc3)C(=O)c3ccccc32)c1",
    "group": "inactive"
  },
  {
    "molecule": "Cc1cccc(Cc2c(C)nc3c(C(=O)NCc4ccco4)cnn3c2C)c1",
    "group": "inactive"
  }
]

Entry CCn1c(NCc2ccco2)nc2ccccc21 : call = ?
inactive

Entry COc1ccc(C(CNC(=O)C(Cc2ccccc2)NC(N)=O)N(C)C)cc1 (stereo not drawn) : call = ?
active

###

# assayed-target: Short transient receptor potential channel 4 (Mus musculus) (UniProt Q9QUQ5)
# Sequence (Q9QUQ5 whole entry, looked up): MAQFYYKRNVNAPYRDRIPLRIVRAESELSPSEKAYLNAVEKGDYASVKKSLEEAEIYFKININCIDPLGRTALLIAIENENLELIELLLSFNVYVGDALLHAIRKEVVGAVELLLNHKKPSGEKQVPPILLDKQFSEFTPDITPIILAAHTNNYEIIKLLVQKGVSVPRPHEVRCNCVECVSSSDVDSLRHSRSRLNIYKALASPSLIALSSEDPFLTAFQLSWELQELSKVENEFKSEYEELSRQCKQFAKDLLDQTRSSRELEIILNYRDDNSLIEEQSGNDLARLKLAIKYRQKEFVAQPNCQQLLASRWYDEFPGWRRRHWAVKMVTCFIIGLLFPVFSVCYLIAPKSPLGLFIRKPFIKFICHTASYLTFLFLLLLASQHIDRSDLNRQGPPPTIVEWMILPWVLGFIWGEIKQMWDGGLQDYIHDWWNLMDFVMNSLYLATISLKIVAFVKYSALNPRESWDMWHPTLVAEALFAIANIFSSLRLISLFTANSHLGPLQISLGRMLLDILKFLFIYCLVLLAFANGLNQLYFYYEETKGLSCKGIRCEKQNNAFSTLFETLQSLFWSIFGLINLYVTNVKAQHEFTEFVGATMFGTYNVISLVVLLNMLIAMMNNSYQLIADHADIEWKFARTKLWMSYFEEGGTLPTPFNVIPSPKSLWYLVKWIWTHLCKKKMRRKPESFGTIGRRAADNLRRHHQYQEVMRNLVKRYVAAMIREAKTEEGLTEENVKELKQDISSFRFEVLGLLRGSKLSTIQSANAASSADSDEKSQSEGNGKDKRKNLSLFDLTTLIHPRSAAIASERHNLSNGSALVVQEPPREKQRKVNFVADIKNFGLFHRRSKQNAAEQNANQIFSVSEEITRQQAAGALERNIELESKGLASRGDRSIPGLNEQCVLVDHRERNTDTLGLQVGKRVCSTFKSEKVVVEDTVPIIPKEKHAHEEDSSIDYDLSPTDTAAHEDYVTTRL
# protocol-description: calcium entry via TRPC4 opening agents – cell-based, HEK293 TRPC4/mu-opioid, Fluo-4 calcium, dose response (AID 434937);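 further: HEK293 cells coexpressing mouse TRPC4 with mu-opioid receptor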
# settings: HEK293 TRPC4 cells, Fluo-4 calcium fluorescence ratio; series mostly up to 20 µM
Measured potencies and affinities stand elsewhere. Active and inactive are the calls of the source.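 Rule for the calls: active = primary screen activator hit with a dose response curve and TRPC4 channel activation at any tested dose; inactive = no activation, no dose response, or not a primary hit.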
property-measured: outcome

A selection of reference data follows.
[
  {
    "molecule": "Cc1ccc(Cn2c(Cc3ccccc3)nc3ccccc32)cc1",
    "assayed-target": "Short transient receptor potential channel 4 (Mus musculus) (UniProt Q9QUQ5)",
    "outcome": "inactive"
  },
  {
    "molecule": "CCCn1c(N)c(C(=O)CSc2n[nH]c(-c3ccc(C)cc3)n2)c(=O)[nH]c1=O",
    "assayed-target": "Short transient receptor potential channel 4 (Mus musculus) (UniProt Q9QUQ5)",
    "outcome": "inactive"
  },
  {
    "molecule": "CC(C)(C)c1ccc(-c2nnc3sc(-c4ccccn4)nn23)cc1",
    "assayed-target": "Short transient receptor potential channel 4 (Mus musculus) (UniProt Q9QUQ5)",
    "outcome": "inactive"
  },
  {
    "molecule": "O=C(Cc1ccccc1)Nc1cccc(NC(=O)c2cccs2)c1",
    "assayed-target": "Short transient receptor potential channel 4 (Mus musculus) (UniProt Q9QUQ5)",
    "outcome": "inactive"
  },
  {
    "molecule": "CC(CCc1ccc(O)cc1)N(C)CCc1ccccc1 (stereo not given)",
    "assayed-target": "Short transient receptor potential channel 4 (Mus musculus) (UniProt Q9QUQ5)",
    "outcome": "inactive"
  }
]

For the molecule Cc1cc(C)c2nc(C)cc(N/N=C/c3ccc(O)cc3)c2c1 , what outcome is on record?
inactive

For the molecule N=c1c(C(=O)NCC2CCCO2)cc2c(=O)n3ccccc3nc2n1Cc1ccc(Cl)cc1 (stereo not given) , what outcome is on record?
inactive

For the molecule CN(C)CC(CCC(CN(C)C)C(O)(c1ccccc1)c1ccccc1)C(O)(c1ccccc1)c1ccccc1 (stereo not given) , what outcome is on record?
inactive

For the molecule Cc1ccc(C)c2c(N)c3c(nc12)CCCCC3 (tested in a mixture with another compound) , what outcome is on record?
inactive

For the molecule CCOC(=O)c1c(C)n(C)c2ccc(OCC(O)CNCCc3ccccc3)cc12 (stereo not given) , what outcome is on record?
inactive

For the molecule COc1ccc(NS(=O)(=O)c2ccc3ccccc3c2)c2ncccc12 , what outcome is on record?
inactive

For the molecule Cc1cc(C(=O)CN2C(=O)C(=O)N(CC(C)C)C2=O)c(C)n1-c1ccccc1F , what outcome is on record?
inactive

For the molecule O=[N+]([O-])c1cccc(CSc2nnc(Cc3ccccc3)n2-c2ccc(F)cc2)c1 , what outcome is on record?
inactive

For the molecule C=CCNC(=S)N1CCN(CCN=Cc2c(C)[nH]n(-c3ccc([N+](=O)[O-])cc3)c2=O)CC1 , what outcome is on record?
inactive

For the molecule Cn1c(=O)c2c(nc(CN3CCc4ccccc4C3)n2Cc2cccc(Cl)c2)n(C)c1=O , what outcome is on record?
inactive

For the molecule CCN(CC)CCN(Cc1cc2ccc(C)cc2[nH]c1=O)C(=S)Nc1ccccc1C(=O)OC , what outcome is on record?
inactive

###

# assayed-target: Short transient receptor potential channel 4 (Mus musculus)
# protocol-description: calcium flux activators in TRPC4/5HT1a cells, counter-screen for TRPC4 activator project, cell-based, second counter screen, HEK293 TRPC4/5HT1a, Fluo-4 (AID 434977)
# settings: Fluo-4 calcium flux, at 10 µM
The source made the active and inactive calls.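 How the source made its calls: active means calcium signal rise above buffer-control mean plus 5 SD in both duplicates, and also a hit in the primary screen; inactive means the rest.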
Give your call using only these classes: active, inactive

[
  {
    "compound": "COc1ccc([N+](=O)[O-])cc1NCc1ccco1",
    "group": "inactive"
  },
  {
    "compound": "Clc1ccc(CN2C3=NCCN3c3ccccc32)cc1",
    "group": "inactive"
  },
  {
    "compound": "Fc1ccc2c(c1)C(c1ccncc1)=NNC(c1ccc(Cl)cc1)=N2",
    "group": "inactive"
  },
  {
    "compound": "CC(C)c1nc(N2CCOCC2)c(C#N)c2c1CCCC2",
    "group": "inactive"
  },
  {
    "compound": "Cn1nnnc1SCCNCc1ccccc1OCc1ccc(Cl)cc1",
    "group": "inactive"
  }
]

Entry Cc1cc(C)cc(N(CC(=O)Nc2ccc(C)cc2Cl)S(=O)(=O)c2c(C)[nH]c(=O)[nH]c2=O)c1 : call = ?
inactive

Where these numbers come from: PubChem BioAssay
